// data source = ChEMBL document CHEMBL6134844

Molecular target: Voltage-gated inwardly rectifying potassium channel KCNH2 (Homo sapiens, UniProt Q12809)
Sequence (Q12809 whole entry): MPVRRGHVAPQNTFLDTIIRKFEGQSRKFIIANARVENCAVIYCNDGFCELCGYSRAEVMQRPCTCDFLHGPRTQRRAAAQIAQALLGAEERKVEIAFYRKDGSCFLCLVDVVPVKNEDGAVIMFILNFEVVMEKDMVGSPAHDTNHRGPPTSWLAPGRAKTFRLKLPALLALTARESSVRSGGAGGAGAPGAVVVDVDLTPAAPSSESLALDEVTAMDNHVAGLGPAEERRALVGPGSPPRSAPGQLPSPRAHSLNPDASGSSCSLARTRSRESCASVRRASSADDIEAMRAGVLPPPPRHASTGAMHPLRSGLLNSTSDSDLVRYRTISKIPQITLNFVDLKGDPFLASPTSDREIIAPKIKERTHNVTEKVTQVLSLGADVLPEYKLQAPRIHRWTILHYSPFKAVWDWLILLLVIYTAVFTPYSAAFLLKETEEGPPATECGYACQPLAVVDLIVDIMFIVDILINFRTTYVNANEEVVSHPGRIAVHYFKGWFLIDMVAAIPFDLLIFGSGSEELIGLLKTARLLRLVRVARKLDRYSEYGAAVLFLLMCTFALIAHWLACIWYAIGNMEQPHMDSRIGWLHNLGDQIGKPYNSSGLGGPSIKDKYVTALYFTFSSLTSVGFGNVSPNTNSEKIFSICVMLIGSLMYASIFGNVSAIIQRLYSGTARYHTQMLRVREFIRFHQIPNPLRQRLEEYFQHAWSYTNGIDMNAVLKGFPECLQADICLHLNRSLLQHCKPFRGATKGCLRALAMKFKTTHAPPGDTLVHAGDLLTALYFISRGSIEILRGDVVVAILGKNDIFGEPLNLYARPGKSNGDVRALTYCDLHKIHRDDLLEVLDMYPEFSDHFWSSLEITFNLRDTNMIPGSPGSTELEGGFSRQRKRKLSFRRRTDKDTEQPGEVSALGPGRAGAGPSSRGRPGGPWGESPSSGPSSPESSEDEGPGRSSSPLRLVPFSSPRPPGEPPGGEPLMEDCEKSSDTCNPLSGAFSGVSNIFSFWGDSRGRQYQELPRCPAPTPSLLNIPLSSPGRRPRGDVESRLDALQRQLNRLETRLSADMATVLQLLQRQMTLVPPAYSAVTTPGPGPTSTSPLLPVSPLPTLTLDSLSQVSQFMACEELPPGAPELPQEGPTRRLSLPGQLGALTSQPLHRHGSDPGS
Assay: Inhibition of hERG expressed in HEK293 cells by manual patch clamp assay
Parameter measured: IC50

IC50 for "O=c1c2c([nH]c3cc(Oc4ccc(OC(F)(F)F)cc4)ccc13)CCCC2" is > 10 µM

---

Kindly supply the reported IC50 values for the records listed here.
System: Plasmodium falciparum
Assay: Antiplasmodial activity against asexual blood-stage (ABS) ATV-resistant clinical isolate Plasmodium falciparum Tm90-C2B infected in human erythrocytes assessed as reduction in fluorescence measured after 72 hrs by Malaria SYBR Green I-based Fluorescence (MSF) assay
Type: functional, organism-based
Conditions: Erythrocyte
Give bare numbers, in nM.

Here is how some compounds turned out for IC50.
* O=c1c2ccc(Oc3ccc(OC(F)(F)F)cc3)cc2[nH]c2cc(Cl)c(F)cc12 | 1520
* CC(C)(C)OC(=O)N1CCC(Oc2ccc3c(=O)c4c(F)cc(Cl)cc4[nH]c3c2)CC1 | 271

# map each compound to its IC50
1. O=c1c2ccc(Oc3cccc(OC(F)(F)F)c3)cc2[nH]c2cc(Cl)cc(F)c12
2. O=c1c2ccc(OCc3cccc(OC(F)(F)F)c3)cc2[nH]c2cc(F)cc(Cl)c12

### Response
[8.6, 20.4]

---

Kindly supply the reported IC50 values for the records listed here.
System: HepG2
Assay: Cytotoxicity against human HepG2 cells assessed as cell viability measured after 48 hrs by MTT assay
Format: functional, cell-based
Details: HepG2, 48 h

Here is how some molecules turned out for IC50.
- CCCCN(CCCC)CCCOc1ccc2c(=O)c3c([nH]c2c1)CCCC3: > 200 µM
- CC(C)(C)OC(=O)N1CCC(Oc2ccc3c(=O)c4c(F)cc(Cl)cc4[nH]c3c2)CC1: 59.9 µM
- O=c1c2ccc(OCc3ccc(C(F)(F)F)cc3)cc2[nH]c2cc(Cl)cc(F)c12: 153 µM
- CCCN(CCC)CCOc1ccc2c(=O)c3c([nH]c2c1)CCCC3: > 200 µM
- O=c1c2ccc(OCc3cccc(OC(F)(F)F)c3)cc2[nH]c2ccc(Cl)c(F)c12: > 200 µM

# map each molecule to its IC50
1. O=c1c2c([nH]c3ccc(Oc4ccc(OC(F)(F)F)cc4)cc13)CCCC2
2. COc1ccc(Oc2ccc3c(=O)c4c(F)cc(Cl)cc4[nH]c3c2)cc1
3. O=c1c2ccc(Oc3ccc(OC(F)(F)F)cc3)cc2[nH]c2ccc(F)c(Cl)c12
4. O=c1c2c([nH]c3c(Oc4ccc(OC(F)(F)F)cc4)cccc13)CCCC2

### Response
1. > 200 µM
2. > 200 µM
3. > 200 µM
4. > 200 µM

IC50 for "CC(C)(C)OC(=O)N1CCC(Oc2ccc3c(=O)c4c(Cl)cc(F)cc4[nH]c3c2)CC1" is 90.2 µM

---

Kindly supply the reported IC50 values for the records listed here.
System: Plasmodium cynomolgi
Assay: Antiplasmodial activity against hypnozoite Plasmodium cynomolgi B strain infected in Macaca mulatta hepatocytes incubated with sporozoite containing salivary gland homogenate obtained from dissected Anopheles dirus mosquitoes (infected with Plasmodium cynomolgi B strain) treatment started on day 4 post infection and continued daily for 4 days into fresh changed media until day 8 assessed as Liver stage (LS) activity by measuring radical cure mode by immunofluorescent staining analysis
Format: functional, organism-based
Details: Hepatocyte
Give bare numbers, in µM.

Here is how some compounds turned out for IC50.
* CC(C)(C)OC(=O)N1CCC(Oc2ccc3c(=O)c4c(F)cc(Cl)cc4[nH]c3c2)C1 (stereo not drawn) | 2.48
* O=c1c2c([nH]c3ccc(F)c(Oc4ccc(OC(F)(F)F)cc4)c13)CCCC2 | 14

Here's the next entry for you.
IC50 for "O=c1c2ccc(OCc3ccc(OC(F)(F)F)cc3)cc2[nH]c2cc(Cl)cc(F)c12" is 0.47
